For each of the molecules below, state its GI50.
System: SF-295
Experiment: NCI tumour cell line growth inhibition, 48 h
Active and inactive are the calls of the source. Rule as the data show it: active = GI50 up to about 1.1 µM and inactive = higher.

[Q] Give its GI50 value. Item: OC[C@H]1CCCC1O (some centres not stated)
[A] > 100 µM (inactive)

[Q] Same again, this time with "Cc1nc(N)c(N2CCNCC2)c(O)n1"
[A] > 100 µM (inactive)

[Q] Same again, this time with "CCCCCC(O)(CCCCC)CCCCCCCCC1=C(O)C(=O)c2ccccc2C1=O"
[A] 7.91 µM (inactive)

[Q] Same again, this time with "COc1ccc2c(C)cc(C)nc2n1"
[A] > 100 µM (inactive)

[Q] Same again, this time with O=C1CCC2(c3ccc(Cl)cc3)Nc3ccccc3N12 (configuration not stated)
[A] > 100 µM (inactive)

[Q] Same again, this time with "O=[N+]([O-])O"
[A] > 100 µM (inactive)

[Q] Same again, this time with "C=C(C)COc1cc(/N=C(/S)OC(C)C)ccc1Cl"
[A] 15.5 µM (inactive)

[Q] Same again, this time with "O=C(O)/C=C/c1ccc(OS(=O)(=O)O)cc1"
[A] > 100 µM (inactive)

[Q] Same again, this time with "CC(=O)N(CCN)CCN"
[A] > 10 µM (inactive)

[Q] Same again, this time with "O=C(C[n+]1ccc2ccccc2c1)c1ccc2ccc3ccccc3c2c1"
[A] 0.824 µM (active)

[Q] Same again, this time with COc1cc(C2c3cc4c(cc3OC(N3CCCCC3)C2C)OCO4)cc(OC)c1O (configuration not stated)
[A] 3.7 µM (inactive)

[Q] Same again, this time with "COCN1C(=O)[C@@H]2CCCN2C(=O)c2ccc(N)cc21"
[A] > 100 µM (inactive)

###

Test system: MOLT-4
Assay: NCI tumour cell line growth inhibition, 48 h
The source made the active and inactive calls. Rule as the data show it: active = GI50 up to about 1.1 µM and inactive = higher.
For each of the compounds below, state its GI50.

[Q] API: value(readout=GI50, system=MOLT-4) for record "O=C(c1ccc(Cl)cc1)c1ccc(OCCCOc2ccc(C(=O)c3ccc(Cl)cc3)cc2Cl)c(Cl)c1"
[A] > 100 µM (inactive)

[Q] Same again, this time with "CC1(C)CC2(CC(C)(C)N1O)NC(=O)OC2=O"
[A] > 100 µM (inactive)

[Q] Same again, this time with "COc1ccc(-c2onc(-c3c(C)cc(C)cc3C)c2C2=NCCN2)cc1"
[A] 39.8 µM (inactive)

[Q] Same again, this time with "O=C(c1ccc(Cl)cc1)N(C(=O)N1CCCCC1)c1ccccc1"
[A] 18.9 µM (inactive)

[Q] Same again, this time with "O=C(Nc1cc(Cl)ccc1Cl)c1cc2ccccc2oc1=O"
[A] 94.8 µM (inactive)

[Q] Same again, this time with "O=C(Nc1nn(C(=O)c2ccc(Cl)cc2)c(=O)s1)c1ccc(Cl)cc1"
[A] > 100 µM (inactive)

[Q] Same again, this time with "C1=N\c2ccc(cc2)-c2ccc(cc2)/N=C\c2ccc(cc2)OCc2cccc(n2)COc2ccc/1cc2"
[A] 85.3 µM (inactive)

[Q] Same again, this time with "c1ccc(-c2ccnc3c2ccc2c(-c4ccccc4)ccnc23)cc1"
[A] 0.514 µM (active)

[Q] Same again, this time with "O=C(c1ccc([N+](=O)[O-])cc1[N+](=O)[O-])N(/N=C/C=C/c1ccccc1)c1nnc(-c2ccccc2)c(-c2ccccc2)n1"
[A] 23.6 µM (inactive)

[Q] Same again, this time with "CCOc1cc(/C=C/C=C/c2ccc(N(C)C)cc2)[s+]c2ccccc12"
[A] 6.85 µM (inactive)

[Q] Same again, this time with "C=C(C)COc1cc(/N=C(/S)OC(C)C)ccc1Cl"
[A] 12.1 µM (inactive)

[Q] Same again, this time with "CC1=C(C(=O)NNC(=O)C[N+](C)(C)C)CC(C(=O)NNC(=O)C[N+](C)(C)C)=C(C)N1"
[A] > 100 µM (inactive)

[Q] Same again, this time with NC1=NN(c2ccccc2)C(=O)C1C(=O)CCC(=O)Nc1cccc(C(F)(F)F)c1 (configuration not stated)
[A] > 100 µM (inactive)

[Q] Same again, this time with "COc1cccc(/C=N/n2c(Cc3ccc(Cl)cc3)n[nH]c2=O)c1"
[A] > 100 µM (inactive)

[Q] Same again, this time with O=C1C=C(Br)C(=O)C12CCc1ccccc12 (configuration not stated)
[A] 2.43 µM (inactive)

[Q] Same again, this time with CCCCCCCCCCCCOC1C(COCCN2CCCCC2)OC2OC(C)(C)OC21 (configuration not stated)
[A] 1.53 µM (inactive)

[Q] Same again, this time with C=C1CCC2[C@](C)(CCC[C@]2(C)C(=O)O)[C@@H]1CCc1ccoc1 (some centres not stated)
[A] 32.5 µM (inactive)

[Q] Same again, this time with "Cc1ccc(S(=O)(=O)N2CCCSCCN(S(=O)(=O)c3ccc(C)cc3)CCCSCC2)cc1"
[A] > 100 µM (inactive)

[Q] Same again, this time with "CC1(C)CC[C@]2(C(=O)O)CC[C@]3(C)C(=CCC4=C5C[C@H](O)[C@H](O)[C@@](C)(CO)[C@@]5(C)CC[C@]43C)[C@@H]2C1"
[A] 47.3 µM (inactive)

[Q] Same again, this time with "O=C1c2ccccc2-c2nc(/C=C/c3ccccc3)cc3c2c1nc1ccccc13"
[A] 23.6 µM (inactive)

[Q] Same again, this time with "C=C1CCN2CC[C@@H](OC(=O)/C(C)=C\C)[C@@H]12"
[A] > 100 µM (inactive)

[Q] Same again, this time with C=C1C(=O)OC2/C=C(\C)C3OC3/C=C(/C(=O)OC)C(OC(C)=O)C(OC(=O)C(C)(O)C(C)OC(C)=O)C12 (configuration not stated)
[A] 0.647 µM (active)

[Q] Same again, this time with "C/C(=N\N=C(/S)N(C)C)c1cccc[n+]1[O-]"
[A] 0.914 µM (active)

[Q] Same again, this time with COc1cc2c(cc1OC)[C@H]1C(COC(=O)Nc3ccccc3)CN1CC2 (some centres not stated)
[A] 95.5 µM (inactive)

[Q] Same again, this time with "C#CCOCn1cnc2c(N)ncnc21"
[A] > 100 µM (inactive)

[Q] Same again, this time with CCOP(=O)(OCC)C(Nc1ccc(Cl)cc1)c1ccc(F)cc1 (configuration not stated)
[A] 23.1 µM (inactive)

[Q] Same again, this time with Cc1cc(O)c2c(c1O)C(=O)C1=C(C2=O)C(=O)C2C(O)C1C1C(O)CC(O)=C3C(=O)c4c(O)cc(C)c(O)c4C(=O)C321 (configuration not stated)
[A] 1.52 µM (inactive)

[Q] Same again, this time with COc1cc(O)c2c(=O)c(O)c(-c3ccc(O)c(OC)c3)oc2c1 [RHAMNAZIN]
[A] 4.41 µM (inactive)

[Q] Same again, this time with CCOC(=O)C(NC(=O)Nc1ccccc1F)(OC)C(F)(F)F (configuration not stated)
[A] > 100 µM (inactive)

[Q] Same again, this time with "Cc1ccsc1/C=N/Nc1ccc2ccccc2n1"
[A] 8.04 µM (inactive)

[Q] Same again, this time with COc1cc2c3c(c1OC)Oc1ccc(cc1)CC1c4c(cc(OC)c(OC)c4Oc4ccc(cc4)CC3N(C)CC2)CCN1C (configuration not stated)
[A] 21.8 µM (inactive)

[Q] Same again, this time with O=c1[nH]c(=O)n(C2CC(O)C(CO)O2)cc1COCC(F)(F)F (configuration not stated)
[A] > 100 µM (inactive)

[Q] Same again, this time with CC1OC(OC2C(CO)OC(O[C@H]3CC[C@@]4(C)C(=CC[C@H]5[C@@H]6C[C@@H]7O[C@](O)(CC[C@@H](C)COC8OC(CO)C(O)C(O)C8O)[C@@H](C)[C@@H]7[C@@]6(C)CC[C@@H]54)C3)C(OC3OC(C)C(O)C(O)C3O)C2O)C(O)C(O)C1O (some centres not stated)
[A] 1.58 µM (inactive)

[Q] Same again, this time with C#C/C=C/CC1OC(C(Br)CC)CC(Br)C2CC1O2 (configuration not stated)
[A] 29.4 µM (inactive)

[Q] Same again, this time with "O=C(O)/C=C/c1ccc(OS(=O)(=O)O)cc1"
[A] > 100 µM (inactive)

[Q] Same again, this time with C/C=C(\C)[C@@H](O)C(=O)O[C@@H]1CC(C(C)(C)O)[C@](C)(CCC(=O)OC)[C@H]2[C@H](OC(=O)[C@H](O)[C@H](C)CC)C[C@]3(C)C(=CC[C@H]3[C@H]3CO[C@H](C=C(C)C)C3)[C@]12C (some centres not stated)
[A] 19.7 µM (inactive)

[Q] Same again, this time with COCCN1C(=O)C2c3[nH]c4ccccc4c3C3CCC(C(C)(C)C)CC3C2C1=O (configuration not stated)
[A] > 10 µM (inactive)

###

System: SR
Experiment: NCI tumour cell line growth inhibition, 48 h
Active and inactive are the calls of the source. Cut-off read from the data, not from the text of the source: active = GI50 up to about 1.1 µM and inactive = higher.
MEASURED_METRIC: GI50

[Q] Give its GI50 value. Item: "O=C(O)c1[nH]c2c([N+](=O)[O-])cc([N+](=O)[O-])cc2c1C(=O)O"
[A] 75.5 µM (inactive)

[Q] Same again, this time with "COC(OC)c1cc2c(cc1C=O)OCO2"
[A] > 100 µM (inactive)

[Q] Same again, this time with CCNC(=O)C1CCCN1C(=O)C(CCCN=C(N)N)NC(=O)C(CC(C)C)NC(=O)C(Cc1c[nH]c2ccccc12)NC(=O)C(Cc1ccc(O)cc1)NC(=O)C(CO)NC(=O)C(Cc1c[nH]c2ccccc12)NC(=O)C(Cc1c[nH]cn1)NC(=O)C1CCC(=O)N1 (centres undefined)
[A] > 100 µM (inactive)

[Q] Same again, this time with "COc1ccc(N2C=Nn3c(nc4sc5c(c4c3=O)CCCC5)C2)cc1"
[A] > 100 µM (inactive)

[Q] Same again, this time with OC(CN(CCCl)CCCl)C(O)C(O)C(O)CN(CCCl)CCCl (centres undefined)
[A] 0.624 µM (active)

[Q] Same again, this time with Cc1ccc(/C=C2\CN(C)CC3=C2OC(N)=C(C#N)C3c2ccc(C)cc2)cc1 (centres undefined)
[A] 19.9 µM (inactive)

[Q] Same again, this time with Cc1cc(O)c2c(c1O)C(=O)C1=C(C2=O)C(=O)C2C(O)C1C1C(O)CC(O)=C3C(=O)c4c(O)cc(C)c(O)c4C(=O)C321 (centres undefined)
[A] 2.36 µM (inactive)

[Q] Same again, this time with COc1cc(NCC2COc3c(ccc(OC)c3OC)C2=O)c([N+](=O)[O-])cc1OC (centres undefined)
[A] 30.8 µM (inactive)

[Q] Same again, this time with O=C(CC(C(=O)c1ccsc1)c1ccccc1)c1ccccc1 (centres undefined)
[A] > 100 µM (inactive)

[Q] Same again, this time with Nc1nc(Cl)cc(NCC2CC(O)(CO)C2)n1 (centres undefined)
[A] > 10 µM (inactive)

[Q] Same again, this time with "O=C(/C=N/O)Nc1cccc(Cl)c1I"
[A] 30.7 µM (inactive)

[Q] Same again, this time with COC1OC(COC(=O)c2cc(O)c(O)c(O)c2)C(OC(=O)c2cc(O)c(O)c(O)c2)C(OC(=O)c2cc(O)c(O)c(O)c2)C1OC(=O)c1cc(O)c(O)c(O)c1 (centres undefined)
[A] 11.1 µM (inactive)

[Q] Same again, this time with "c1ccc(-c2ccnc3c2ccc2c(-c4ccccc4)ccnc23)cc1"
[A] 0.273 µM (active)

[Q] Same again, this time with "Nc1ncnc2c1ncn2[C@@H]1O[C@H](C(=O)O)[C@@H](O)[C@H]1O"
[A] > 100 µM (inactive)

[Q] Same again, this time with "Clc1ccc(-n2nnc(C3=NCCN3)c2-c2ccccc2)cc1"
[A] > 100 µM (inactive)

[Q] Same again, this time with "COc1nc(C#CC(C)(C)C)nc(OC)n1"
[A] 5.21 µM (inactive)

[Q] Same again, this time with COC(=O)C1CCC(=O)N1C(c1ccc(OC)cc1)c1cc(OC)c(OC)c(OC)c1 (centres undefined)
[A] 0.18 µM (active)

[Q] Same again, this time with "Nc1nc(SC/C=C/c2ccccc2)c2[nH]cnc2n1"
[A] 45.7 µM (inactive)

[Q] Same again, this time with "Clc1nncc2sc(-c3ccccc3)nc12"
[A] 9.82 µM (inactive)
